- assayNotes: NCI Yeast Anticancer Drug Screen. Data for the cln2 rad14 strain (AID 165);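 further: 0% = growth equal to vehicle treated cultures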
- settings: S. cerevisiae cln2 rad14 strain, at 50.0 µM (retest, dose inferred, filed as 5.0), active compounds read high
The panel holds about 79,000 compounds, 15% with a hit somewhere; the sample as a whole holds those more often.
measuredMetric: growth inhibition (%)
# number only, unit % dropped from output

INSERT INTO results (compound, measvalue) VALUES
  ('CCCN(CCC)CC(O)c1ccc2ccc3ccc(Cl)cc3c2c1 (stereo not given)', 98),
  ('C/C(=N\O)c1ccc2cc(Br)c3ccccc3c2c1', 96),
  ('COc1cc(CC#N)c(NC(C)=O)cc1OC', -2),
  ('CCN(CC)CCCOC(=O)C(c1ccccc1)C1CCCCC1 (stereo not given)', 41),
  ('C=C1CC2(CCS(=O)(=O)c3ccccc32)OC1=O (stereo not given)', 15),
  ('CCCCCCCCCCCC[S+](C)C', 26),
  ('COc1ccc(/C=C\Cc2cc3c(cc2OCCO)OCO3)cc1', 82),
  ('O=c1[nH]c2ccc([N+](=O)[O-])c(Cl)c2c2ccccc12', 95),
  ('COc1cc(C2C(C(=O)O)=C(C)Oc3cc4c(cc32)OCO4)cc(OC)c1OC (stereo not given)', 91);

Per the record, Cn1cc(NC(=O)Nc2cc(C(=O)Nc3cc(C(=O)Nc4cc(S(=O)(=O)O)c5cc(S(=O)(=O)O)cc(S(=O)(=O)O)c5c4)n(C)c3)n(C)c2)cc1C(=O)Nc1cc(C(=O)Nc2cc(S(=O)(=O)O)c3cc(S(=O)(=O)O)cc(S(=O)(=O)O)c3c2)n(C)c1 has growth inhibition of 48

----------
- assayNotes: NCI Yeast Anticancer Drug Screen. Data for the cln2 rad14 strain (AID 165);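 further: 0% = growth equal to vehicle treated cultures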
- settings: S. cerevisiae cln2 rad14 strain, at 5.0 µM (retest, dose inferred, filed as 0.5), active compounds read high
The panel holds about 79,000 compounds, 15% with a hit somewhere; the sample as a whole holds those more often.
measuredMetric: growth inhibition (%)
Numbers only; they are read as %.

INSERT INTO measurements (compound, measuredmetric, measvalue) VALUES
  ('Cc1ccc(C2C(O)=C(c3ccccc3)Sc3ccc(C)cc32)cc1 (stereo not drawn)', 'growth inhibition', -5);

Quick note, growth inhibition for CC(C)C1=CC2=CC(=O)C3C(C)(C)CCCC3(C)C2=C(O)C1=O (stereo not drawn) landed at 24

The compound CCCCCCCCCCCC(=O)OC/C=C/COC(=O)c1ccccc1 showed growth inhibition equal to 0

Form field growth inhibition, entry CC1=C(C(=O)Nc2ccccc2)C(c2cc(Cl)cc(Cl)c2)C(C(=O)Nc2ccccc2)=C(C)N1 : 5

growth inhibition reading for O=C(O)c1c2c(c(O)c3c1CN(C1CCCCC1)CO3)OCN(C1CCCCC1)C2 : -17

Noted for CCCC(C1=C(O)CC(C)CC1=O)C1=C(O)CC(C)CC1=O (stereo not drawn) : its growth inhibition reads -34

growth inhibition reading for CN1CCC(OC(=O)c2ccc3ncccc3c2)CC1 : -5

The compound listed as O=C1Nc2c(Cl)cc(Cl)cc2/C1=N/N=C/c1ccco1 shows growth inhibition equal to 28

GET /value?item= CN1CCC(/C=C/c2cccc3ccccc23)CN1 (stereo not drawn) (tested in a mixture with another compound) &field=growth inhibition returns 3
